Target: human thyroid hormone receptors TRα1 (Homo sapiens)
Sequence (P10827 1-410 isoform P10827-2, one chain of several): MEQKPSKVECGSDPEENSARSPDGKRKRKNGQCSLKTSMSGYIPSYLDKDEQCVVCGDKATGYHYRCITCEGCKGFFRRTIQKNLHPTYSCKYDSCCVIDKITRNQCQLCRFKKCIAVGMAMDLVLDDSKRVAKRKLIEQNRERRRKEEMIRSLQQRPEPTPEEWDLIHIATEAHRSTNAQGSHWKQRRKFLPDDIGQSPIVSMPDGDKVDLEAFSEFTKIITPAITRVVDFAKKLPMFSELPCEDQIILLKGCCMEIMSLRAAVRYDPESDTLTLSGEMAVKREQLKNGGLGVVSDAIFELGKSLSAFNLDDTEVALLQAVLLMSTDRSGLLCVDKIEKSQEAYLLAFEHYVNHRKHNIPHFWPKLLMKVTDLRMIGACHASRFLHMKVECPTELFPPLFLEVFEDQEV
pKi: −log10 of the molar value.
metric name: pKi

q: Param item = `Cc1cc(C(=O)CP(=O)(O)O)cc(C)c1Cc1ccc(F)c(C(C)C)c1` ; retrieve measured pKi.
a: < 5.70

---

Target: UniProt:P10828
Sequence (P10828 1-461): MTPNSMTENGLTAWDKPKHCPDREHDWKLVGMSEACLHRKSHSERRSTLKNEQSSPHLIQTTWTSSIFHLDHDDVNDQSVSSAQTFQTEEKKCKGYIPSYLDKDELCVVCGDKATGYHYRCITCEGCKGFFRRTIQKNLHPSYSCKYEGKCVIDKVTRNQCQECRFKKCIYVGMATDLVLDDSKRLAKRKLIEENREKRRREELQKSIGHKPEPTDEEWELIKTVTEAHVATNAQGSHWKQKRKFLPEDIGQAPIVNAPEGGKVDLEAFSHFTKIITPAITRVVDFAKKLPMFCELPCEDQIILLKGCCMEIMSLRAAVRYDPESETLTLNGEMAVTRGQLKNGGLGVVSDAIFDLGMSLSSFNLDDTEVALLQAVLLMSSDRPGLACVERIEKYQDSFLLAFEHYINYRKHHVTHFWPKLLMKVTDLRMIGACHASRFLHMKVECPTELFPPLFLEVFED
Sequence (P19793 1-462 partner): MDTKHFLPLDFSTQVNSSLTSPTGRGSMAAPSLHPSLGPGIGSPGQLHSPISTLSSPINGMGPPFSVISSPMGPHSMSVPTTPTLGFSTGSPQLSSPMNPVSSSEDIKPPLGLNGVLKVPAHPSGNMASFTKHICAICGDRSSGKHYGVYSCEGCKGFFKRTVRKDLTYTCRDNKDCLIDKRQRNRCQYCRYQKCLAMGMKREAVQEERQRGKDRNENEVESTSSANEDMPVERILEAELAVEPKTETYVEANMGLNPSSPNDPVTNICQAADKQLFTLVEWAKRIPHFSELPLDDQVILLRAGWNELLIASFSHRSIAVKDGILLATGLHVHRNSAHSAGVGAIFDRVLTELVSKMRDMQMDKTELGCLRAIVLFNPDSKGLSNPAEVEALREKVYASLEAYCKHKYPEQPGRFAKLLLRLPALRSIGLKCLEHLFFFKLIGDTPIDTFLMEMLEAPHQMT
pKi: −log10 of the molar value.
metric name: pKi

q: Using the record for Cc1cc(CCP(=O)(O)O)cc(C)c1Oc1ccc(F)c(C(C)C)c1 [Compound 42-2] , report its pKi.
a: < 5.70
